Test: Oral bioavailability in C57BL/6 mouse at 20 mg/kg
Type: ADME, organism-based
Details: in vivo
PROPERTY NAME: bioavailability (%)
Give just the numeric value; % need not be written.

Task item: Look up bioavailability: `Cc1sc(C)c(C(=O)NC2(c3ccc(C(=O)O)cc3)CC2)c1Cc1ccc(C(F)(F)F)cc1`
Reply: 21

* * *

Experiment: Volume of distribution at steady state in C57BL/6 mouse at 20 mg/kg, po and 5 mg/kg, iv
Format: ADME, organism-based
Conditions: in vivo, read-out: Vdss
PROPERTY NAME: Vd
Returns: string containing the numeric result and its unit.

Task item: Please look up its Vd: `Cc1sc(C)c(C(=O)NC2(c3ccc(C(=O)O)cc3)CC2)c1Cc1ccc(C(F)(F)F)cc1`
Reply: 7.6 L/kg

Data credit: ChEMBL document CHEMBL1157608
